Recorded AUC0-1 h/AUC0–t values for a group of compounds are listed next.
Experiment: in vivo
Settings: parent compound; 500 mg/kg; male
Experimental: These studies were conducted similarly to OECD TG 417 applying 500 and 1000 mg/kg body weight (bw) test item via oral gavage to 10 males and 10 females per dose group. […] The limit of quantification was determined as 10 ng/mL for all parabens, and as 130 ng/mL for p-hydroxybenzoic acid. […]
// units = %; emit number, no label

Compound | AUC0-1 h/AUC0–t (%)
CCCCOC(=O)c1ccc(O)cc1 [Butyl paraben, Butyl 4-hydroxybenzoate] | 43
COC(=O)c1ccc(O)cc1 [Methyl paraben, Methyl 4-hydroxybenzoate] | 62
CCOC(=O)c1ccc(O)cc1 [Ethyl paraben, Ethyl 4-hydroxybenzoate] | 51

INPUT: State its AUC0-1 h/AUC0–t for this compound: CCCOC(=O)c1ccc(O)cc1 [Propyl paraben, Propyl 4-hydroxybenzoate]
OUTPUT: 63

###

test: in vivo; conditions: female, Wistar, rat, serum, po, 1000 mg/kg, AUC0–t, parent compound
Below, each of the compounds is paired with its reported AUC(0-t) value.
Report only the number, with the unit ng·h/mL understood.

INPUT: Specify AUC(0-t) for COC(=O)c1ccc(O)cc1 [Methyl paraben, Methyl 4-hydroxybenzoate] and stop.
OUTPUT: 20500

INPUT: Supply reported AUC(0-t) belonging to this compound: CCCOC(=O)c1ccc(O)cc1 [Propyl paraben, Propyl 4-hydroxybenzoate]
OUTPUT: 317

INPUT: Given the compound CCOC(=O)c1ccc(O)cc1 [Ethyl paraben, Ethyl 4-hydroxybenzoate] , write its reported AUC(0-t).
OUTPUT: 3320

###

# Tmax annotations
assay: in vivo; details: female, Wistar, rat, serum, po, 1000 mg/kg
# unit: min | format: bare number

Compound | Tmax (min)
CCOC(=O)c1ccc(O)cc1 [Ethyl paraben, Ethyl 4-hydroxybenzoate] | 10.2
COC(=O)c1ccc(O)cc1 [Methyl paraben, Methyl 4-hydroxybenzoate] | 4.8

# ---- query compound ----
INPUT: Quote Tmax reported for CCCOC(=O)c1ccc(O)cc1 [Propyl paraben, Propyl 4-hydroxybenzoate] please.
OUTPUT: 10.2

###

test: in vivo; conditions: female, Wistar, rat, in vivo, po, 1000 mg/kg, AUC0–t, parent compound
Experimental readout: AUC(0-t) (ng·h/mL)
The answer is to be given in ng·h/mL; state only the numeric part.

INPUT: Output AUC(0-t) of CCCCOC(=O)c1ccc(O)cc1 [Butyl paraben, Butyl 4-hydroxybenzoate]
OUTPUT: 404

###

experiment: in vivo; settings: male, Wistar, rat, serum, po, 500 mg/kg, Cmax, parent compound
Cmax for assorted molecules
API: value field is a number in ng/mL; no unit string.

Some molecules with recorded Cmax:
Molecule | Cmax / ng/mL
COC(=O)c1ccc(O)cc1 [Methyl paraben, Methyl 4-hydroxybenzoate] | 6200
CCCOC(=O)c1ccc(O)cc1 [Propyl paraben, Propyl 4-hydroxybenzoate] | 345

Continue with the next molecule.
INPUT: Please list Cmax recorded for the molecule CCOC(=O)c1ccc(O)cc1 [Ethyl paraben, Ethyl 4-hydroxybenzoate]
OUTPUT: 1540

###

test: in vivo; conditions: male, Wistar, rat, in vivo, 1000 mg/kg
Experimental readout: concentration at 1 h (ng/mL)
Provide only the numeric value, understood in ng/mL.

INPUT: Answer with the recorded concentration at 1 h for the compound listed here: CCCCOC(=O)c1ccc(O)cc1 [Butyl paraben, Butyl 4-hydroxybenzoate]
OUTPUT: 373
